# protocol details: in vitro
# measurement parameters: human, hela cells, % viability
Let's look at some molecules and their measured viability at 28.5 h, 10 µM.
measurement kind: viability at 28.5 h, 10 µM

1) CC(C)(C)c1ccc(-c2cnc3ncccc3c2O)cc1 [CBK089628] = 84.3%
2) O=C(O)CC(c1ccncc1)c1c[nH]c2ccccc12 (stereo not shown) [CBK286913] = 90.9%
3) Cn1nc2n(C)c(=O)c3ccc(C(=O)NC4CCCC4)cc3n2c1=O [CBK287811] = 113%
4) CCOC(=O)c1cc2c(CNc3ccc(OC)nc3)cccc2o1 [CBK006086] = 91.7%
5) CC1(C)Cc2nc3sc(C(=O)O)c(NC(=O)c4ccccc4)c3cc2CO1 [CBK266166] = 98.4%
6) CCN(CC(=O)NCc1ccc(Cl)cc1)S(=O)(=O)c1ccc(OC)cc1 [CBK305836] = 92.6%
7) CCc1cc(-c2n[nH]cc2-c2nc(C)cs2)c(O)cc1OC [CBK287934] = 103%
8) FC(F)(F)c1ccnc(Sc2cccc(Cl)c2)n1 [CBK115247] = 98.5%
9) COc1ccc(CN2C(=O)CO[C@H]3CN(C(=O)COc4ccccc4)C[C@H]32)cc1 [CBK289262] = 108%
10) COc1ncccc1CNc1ncnc2c1cnn2CCO [CBK305980] = 116%
